- Test system: T47D
- procedure-text: Induction of apoptosis in human T47D cells measured after 48 hrs by cell and caspase based HTS assay
- Type: functional
pEC50: −log10 of the molar value.
measurement-label: pEC50

| mol-smiles | pEC50 |
| --- | --- |
| COc1cccc(C(=O)c2cc(C#N)c3ccc4c(Cl)cccc4n23)c1 | 7.10 |

[a] N#Cc1cc(C(=O)c2cccc([N+](=O)[O-])c2)n2c1ccc1c(Cl)cccc12
[b] N#Cc1cc(C(=O)c2ccc([N+](=O)[O-])cc2)n2c1ccc1c(Cl)cccc12
Of a and b , which shows the smaller pEC50 value? API: response body contains the label of the selected item.
a
